Where do the numbers come from? From patent US9957271B2.

# targetOfAssay: SIRT1 (Homo sapiens)
# assayInfo: Trp mass spectrometry assay of SIRT1 activity
# Assay type: biochemical
# runConditions: concentration of test compound giving 150% activation of SIRT1; Trp peptide substrate
readoutLabel: Trp EC1.5 (μM)

Guide cases for Trp EC1.5 (μM), answers given:
In [3]: df
Out[3]:
                                   compound    readoutlabel             result
0  Cc1ncccc1-c1ccc2ncc(C(=O)Nc3ccnc(N4CCCC4)c3)n2n1 [Compound 59]  Trp EC1.5 (μM)    C (EC1.5>25 μM)
1  O=C(Nc1ccc(CN2CCCC2)nc1)c1cnc2ccc(-c3ccccc3C(F)(F)F)nn12 [Compound 149]  Trp EC1.5 (μM)  B (EC1.5 1-25 μM)
2  O=C(Nc1ccccn1)c1cnc2ccc(-c3ccccc3OC(F)(F)F)nn12 [Compound 14]  Trp EC1.5 (μM)  B (EC1.5 1-25 μM)
3  O=C(Nc1cnc2ccc(-c3ccccc3C(F)(F)F)nn12)c1nccs1 [Compound 122]  Trp EC1.5 (μM)  B (EC1.5 1-25 μM)
4  O=C(Nc1ccc(F)cn1)c1cnc2ccc(-c3ccccc3C(F)(F)F)nn12 [Compound 110]  Trp EC1.5 (μM)  B (EC1.5 1-25 μM)
5  O=C(Nc1nc(CN2CCOCC2)cs1)c1cnc2ccc(-c3ccccc3C(F)(F)F)nn12 [Compound 20]  Trp EC1.5 (μM)  B (EC1.5 1-25 μM)
6  O=C(Nc1cccc(CN2CCOCC2)n1)c1cnc2ccc(-c3cccc(F)c3F)nn12 [Compound 47]  Trp EC1.5 (μM)    C (EC1.5>25 μM)
7  O=C(Nc1cccc(N2CCOCC2)n1)c1cnc2ccc(-c3c(F)cccc3Cl)nn12 [Compound 164]  Trp EC1.5 (μM)  B (EC1.5 1-25 μM)

Ask: Data request, read-out Trp EC1.5 (μM), for O=C(Nc1ccncc1)c1cnc2ccc(-c3cccc(Cl)c3F)nn12 [Compound 141]
Result: C (EC1.5>25 μM)

Ask: Now this one: O=C(Nc1cnc2ccc(-c3ccccc3C(F)(F)F)nn12)c1cccnc1 [Compound 86]
Result: C (EC1.5>25 μM)

Ask: Request: O=C(Nc1cccc(N2CCOCC2)n1)c1cnc2ccc(-c3ccc(F)c(F)c3F)nn12 [Compound 126]
Result: B (EC1.5 1-25 μM)

Ask: Now the same for O=C(Nc1cccnc1)c1cnc2ccc(-c3ccc(F)c(F)c3F)nn12 [Compound 131]
Result: C (EC1.5>25 μM)

Ask: Entry O=C(Nc1ccncn1)c1cnc2ccc(-c3ccccc3C(F)(F)F)nn12 [Compound 80] please
Result: C (EC1.5>25 μM)

Ask: Same read-out for O=C(Nc1ccnc(N2CCC2)c1)c1cnc2ccc(-c3cccc(Cl)c3F)nn12 [Compound 159] ?
Result: B (EC1.5 1-25 μM)

Ask: Lookup O=C(Nc1ccccn1)c1cnc2ccc(-c3ccccc3C(F)F)nn12 [Compound 32]
Result: B (EC1.5 1-25 μM)

Ask: Entry O=C(Nc1ncccn1)c1cnc2ccc(-c3ccccc3C(F)(F)F)nn12 [Compound 84] please
Result: B (EC1.5 1-25 μM)

Ask: Same for O=C(Nc1nc(CN2CCOCC2)cs1)c1cnc2ccc(-c3cccc(F)c3)nn12 [Compound 29]
Result: B (EC1.5 1-25 μM)

* * *

# targetOfAssay: SIRT1 (Homo sapiens, UniProt Q96EB6)
# Sequence (Q96EB6 1-747): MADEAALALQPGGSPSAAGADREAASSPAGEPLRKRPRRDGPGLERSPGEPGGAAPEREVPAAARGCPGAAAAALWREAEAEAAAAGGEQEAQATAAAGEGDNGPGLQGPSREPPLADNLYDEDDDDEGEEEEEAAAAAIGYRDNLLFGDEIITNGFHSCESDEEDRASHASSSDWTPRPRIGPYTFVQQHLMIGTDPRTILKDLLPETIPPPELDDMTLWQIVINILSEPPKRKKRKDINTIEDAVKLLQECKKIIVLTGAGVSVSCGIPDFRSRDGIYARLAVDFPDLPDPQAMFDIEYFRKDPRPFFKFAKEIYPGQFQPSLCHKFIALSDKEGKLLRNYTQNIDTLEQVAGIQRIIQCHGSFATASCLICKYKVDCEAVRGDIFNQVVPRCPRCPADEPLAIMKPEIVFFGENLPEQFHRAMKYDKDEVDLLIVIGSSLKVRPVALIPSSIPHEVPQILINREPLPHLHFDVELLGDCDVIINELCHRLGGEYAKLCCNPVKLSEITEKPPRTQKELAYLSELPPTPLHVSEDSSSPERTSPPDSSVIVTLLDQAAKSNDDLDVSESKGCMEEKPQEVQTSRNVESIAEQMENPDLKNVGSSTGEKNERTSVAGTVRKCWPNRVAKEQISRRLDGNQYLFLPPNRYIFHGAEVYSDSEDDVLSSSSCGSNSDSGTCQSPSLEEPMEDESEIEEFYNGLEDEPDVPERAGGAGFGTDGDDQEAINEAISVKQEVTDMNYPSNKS
# assayInfo: TAMRA based mass spectrometry assay of SIRT1 activity
# Type: biochemical
# runConditions: TAMRA assay; percent maximum fold activation; read-out: TAMRA % Fold Act
readoutLabel: Emax

>>> print(df.to_string())
                               smilesrecord  result
0  O=C(Nc1cnn2ccc(-c3ccccc3OC(F)(F)F)nc12)c1cnc(O)cn1  ≥ 350%

Ask: For the compound shown here, Cc1scnc1C(=O)Nc1cnn2ccc(-c3ccccc3OC(F)(F)F)nc12 , give the reported Emax.
Result: ≥ 350%

Ask: // same read-out, input: CC1(COc2cccc(NC(=O)c3cnc4ccc(-c5ccccc5C(F)(F)F)nn34)n2)COC1
Result: ≥ 350%

Ask: Please give the result for Cc1ccc(NC(=O)c2c(C)nc3ccc(-c4ccccc4Cl)nn23)nn1 too.
Result: < 350%

Ask: Try this compound next: Cc1nc(C(=O)Nc2c(C)nc3ccc(-c4ccccc4Cl)nn23)cs1
Result: < 350%

Ask: Thanks! And O=C(Nc1ccncc1)c1cnn2ccc(-c3ccccc3C(F)(F)F)nc12 ?
Result: ≥ 350%

* * *

# targetOfAssay: SIRT1 (Homo sapiens)
# assayInfo: TAMRA based mass spectrometry assay of SIRT1 activity
# Type: biochemical
# runConditions: TAMRA assay; percent maximum fold activation; read-out: TAMRA % Fold Act
Recorded Emax, one value per entry.

Ask: Could you share what Emax was measured for Cc1cnc(NC(=O)c2cnn3ccc(-c4ccccc4OC(F)(F)F)nc23)c(C)n1 [Compound 689] , tested on SIRT1 (Homo sapiens)?
Result: < 350%

* * *

# targetOfAssay: SIRT1 (Homo sapiens, UniProt Q96EB6)
# Sequence (Q96EB6 1-747): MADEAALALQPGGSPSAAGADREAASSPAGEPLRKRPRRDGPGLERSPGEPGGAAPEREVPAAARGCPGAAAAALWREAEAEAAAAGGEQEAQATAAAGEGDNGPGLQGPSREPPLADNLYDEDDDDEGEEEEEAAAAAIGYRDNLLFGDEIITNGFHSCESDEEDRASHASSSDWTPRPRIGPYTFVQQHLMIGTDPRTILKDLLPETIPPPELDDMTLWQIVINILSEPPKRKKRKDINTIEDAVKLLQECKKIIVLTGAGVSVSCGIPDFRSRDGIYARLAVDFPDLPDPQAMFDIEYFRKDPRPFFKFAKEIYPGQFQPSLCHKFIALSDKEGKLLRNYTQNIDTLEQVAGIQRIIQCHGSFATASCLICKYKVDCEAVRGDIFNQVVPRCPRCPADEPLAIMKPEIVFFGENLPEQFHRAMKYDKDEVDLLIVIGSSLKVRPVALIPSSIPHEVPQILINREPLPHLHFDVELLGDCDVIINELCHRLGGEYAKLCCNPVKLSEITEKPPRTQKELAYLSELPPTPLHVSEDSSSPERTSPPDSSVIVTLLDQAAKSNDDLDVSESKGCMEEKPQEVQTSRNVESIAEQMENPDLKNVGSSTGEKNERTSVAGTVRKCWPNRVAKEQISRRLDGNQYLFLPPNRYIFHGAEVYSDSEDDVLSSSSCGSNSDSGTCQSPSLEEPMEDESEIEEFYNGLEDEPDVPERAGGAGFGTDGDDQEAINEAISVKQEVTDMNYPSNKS
# assayInfo: TAMRA based mass spectrometry assay of SIRT1 activity
# Assay type: biochemical
# runConditions: concentration of test compound giving 150% activation of SIRT1; TAMRA peptide substrate
readoutLabel: TAMRA EC1.5 (μM)

# example entries with known answers
In [3]: df
Out[3]:
                               smilesrecord      readoutlabel             result
0  COc1nccc(NC(=O)c2cnc3ccc(-c4ccccc4C(F)(F)F)nn23)n1  TAMRA EC1.5 (μM)     A (EC1.5<1 μM)
1  Cc1ccc(NC(=O)c2cnc3ccc(-c4ccccc4C(F)(F)F)nn23)cn1  TAMRA EC1.5 (μM)  B (EC1.5 1-25 μM)
2  O=C(Nc1ncccn1)c1cnc2ccc(-c3ccccc3C(F)(F)F)nn12  TAMRA EC1.5 (μM)  B (EC1.5 1-25 μM)
3  O=C(Nc1cccc(N2CCOCC2)n1)c1cnc2ccc(-c3c(F)cccc3Cl)nn12  TAMRA EC1.5 (μM)     A (EC1.5<1 μM)
4  Cn1nccc1NC(=O)c1cnc2ccc(-c3ccccc3C(F)(F)F)nn12  TAMRA EC1.5 (μM)    C (EC1.5>25 μM)

Ask: May I ask what TAMRA EC1.5 (μM) has been recorded for O=C(Nc1cccc(N2CCCC2)n1)c1nnc2ccc(-c3ccccc3C(F)(F)F)nn12 ?
Result: A (EC1.5<1 μM)

Ask: Now consider O=C(Nc1ccncc1)c1cnc2ccc(-c3c(F)cccc3F)nn12 .
Result: C (EC1.5>25 μM)

Ask: Another: Cc1nc2ccc(-c3ccccc3C(F)(F)F)nn2c1C(=O)Nc1cccc(N2CCCC2)n1
Result: A (EC1.5<1 μM)

Ask: For O=C(Nc1ccnc(N2CCC2)c1)c1cnc2ccc(-c3ccccc3F)nn12 then?
Result: A (EC1.5<1 μM)

Ask: Query O=C(Nc1ccc(F)cn1)c1cnc2ccc(-c3ccccc3C(F)(F)F)nn12 next
Result: A (EC1.5<1 μM)
